Hello, the source for this data is ChEMBL document CHEMBL1152254, in case you need it.

- TARGET OF ASSAY: Peroxisome proliferator-activated receptor alpha (Homo sapiens) (UniProt Q07869)
- Sequence (Q07869 whole entry, the tested form may be a part): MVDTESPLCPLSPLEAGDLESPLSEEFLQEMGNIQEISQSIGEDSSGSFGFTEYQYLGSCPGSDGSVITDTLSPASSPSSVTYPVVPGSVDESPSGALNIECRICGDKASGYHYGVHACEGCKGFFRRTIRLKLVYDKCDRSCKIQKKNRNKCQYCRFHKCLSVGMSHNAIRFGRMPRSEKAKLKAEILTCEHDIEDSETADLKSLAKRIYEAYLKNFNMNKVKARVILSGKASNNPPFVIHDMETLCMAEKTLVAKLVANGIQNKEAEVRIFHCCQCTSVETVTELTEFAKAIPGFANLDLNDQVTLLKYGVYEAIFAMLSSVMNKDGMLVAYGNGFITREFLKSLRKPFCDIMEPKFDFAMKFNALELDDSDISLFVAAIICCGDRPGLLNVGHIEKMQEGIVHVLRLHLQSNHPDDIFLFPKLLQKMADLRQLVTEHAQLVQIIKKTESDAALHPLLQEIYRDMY
- METHOD SUMMARY: Agonist activity at human PPARalpha ligand binding domain expressed in human HepG2 cells co-transfected with Gal4 by luciferase reporter gene assay relative to Wy-14,643
- Format: cell-based
Consider the following compounds; for each one, report its Efficacy.
Answers are plain numbers, in %.

[[record]]
compound = "O=C(O)C(Cc1cccc(Oc2ccccc2)c1)Oc1ccc(Cl)cc1 (racemic)"
units_symbol = "%"
measured_number = 57


Please go through the list and note Efficacy for each compound.
1. O=C(O)C(Cc1ccc(Oc2ccccc2)cc1)Oc1ccc(Cl)cc1 (racemic)
2. O=C(O)[C@H](Cc1ccc(-c2ccccc2)cc1)Oc1ccc(Cl)cc1
3. Cc1ccc(CC(Oc2ccc(Cl)cc2)C(=O)O)cc1 (racemic)
4. Cc1cc(Cl)ccc1OC(Cc1ccccc1)C(=O)O (racemic)
5. CCCc1ccc(CC(Oc2ccc(Cl)cc2)C(=O)O)cc1 (stereo unspecified)
6. O=C(O)[C@H](Cc1ccc(-c2cccs2)cc1)Oc1ccc(Cl)cc1
7. O=C(O)[C@H](Cc1ccc(Oc2ccccc2)cc1)Oc1ccc(Cl)cc1
8. CCCCCCc1ccc(CC(Oc2ccc(Cl)cc2)C(=O)O)cc1 (stereo unspecified)

58
70
53
34
39
71
68
56

Please go through the list and note Efficacy for each compound.
1. O=C(O)C(Cc1ccccc1)Oc1ccc(Cl)cc1Br (racemic)
2. O=C(O)C(Cc1ccccc1C(F)(F)F)Oc1ccc(Cl)cc1 (racemic)

[41, 43]
